The values you see were collected from ChEMBL document CHEMBL1145190.

biological target: Dihydrofolate reductase (Rattus norvegicus); test: Inhibition of rat liver dihydrofolate reductase
Sequence (Q920D2 whole entry): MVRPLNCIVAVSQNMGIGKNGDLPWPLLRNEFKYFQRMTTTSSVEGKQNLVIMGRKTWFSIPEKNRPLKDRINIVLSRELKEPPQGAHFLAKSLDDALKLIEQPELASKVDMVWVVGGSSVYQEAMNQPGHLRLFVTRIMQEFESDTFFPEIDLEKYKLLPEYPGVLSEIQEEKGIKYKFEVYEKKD
# note: boundary value 400 nM maps to F; IC50 below it maps to T

Prompt: Does the reported IC50 of the following compound sit strictly below 400 nM? COc1cc(OC)c(CNc2cnc3nc(N)nc(N)c3c2)c(OC)c1
Response: F

Prompt: Now this one: COc1cc(N(C)Cc2ccc3nc(N)nc(N)c3n2)cc(OC)c1OC
Response: T

Prompt: Now this one: CN(Cc1cccc2ccccc12)c1ccc2nc(N)nc(N)c2c1
Response: T

Prompt: Now this one: COc1cc(NCc2cnc3nc(N)nc(N)c3c2C)c(O)cc1-n1cccc1
Response: T

Prompt: Now this one: Nc1nc(N)c2cc(NCc3cccc4ccccc34)ccc2n1
Response: T

Prompt: Now this one: COc1ccc(-c2ccccc2)cc1NNCc1cnc2nc(N)nc(N)c2c1C
Response: F

Prompt: Now this one: Cc1c(CN(C)c2ccccc2)cnc2nc(N)nc(N)c12
Response: T

Prompt: Now this one: COc1ccc(CNc2cnc3nc(N)nc(N)c3c2)c(OC)c1OC
Response: F

Prompt: Now this one: COc1cc(OC)c(CN(C)c2ccc3nc(N)nc(N)c3c2)c(OC)c1
Response: F

Prompt: Now this one: Cc1c(CN(C)c2ccc(Cl)cc2)cnc2nc(N)nc(N)c12
Response: T

Prompt: Now this one: COc1cc(NNCc2cnc3nc(N)nc(N)c3c2C)c(-n2cccc2)cc1OC
Response: F

###

Could you please report measured IC50 for the items listed next?
Target: Dihydrofolate reductase (Pneumocystis carinii)
Sequence (P16184 whole entry): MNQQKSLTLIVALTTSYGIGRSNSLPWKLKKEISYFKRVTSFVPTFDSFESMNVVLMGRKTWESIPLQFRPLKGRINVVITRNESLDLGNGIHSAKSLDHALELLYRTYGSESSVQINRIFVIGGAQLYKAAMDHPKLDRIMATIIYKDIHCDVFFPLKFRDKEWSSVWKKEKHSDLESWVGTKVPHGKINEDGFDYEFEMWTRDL
Experiment: Inhibition of Pneumocystis carinii dihydrofolate reductase
Give the value in nM but do not write nM after it.

Prompt: Can you share its IC50? I mean this compound: CN(Cc1ccc2nc(N)nc(N)c2n1)c1cc(Cl)c(Cl)c(Cl)c1
Response: 250

Prompt: Now this one: Nc1nc(N)c2nc(CNc3cc(Cl)ccc3Cl)ccc2n1
Response: 1600

Prompt: Now this one: COc1cc(NCc2cnc3nc(N)nc(N)c3c2C)c(O)cc1-n1cccc1
Response: 350

Prompt: Now this one: CN(Cc1ccc2nc(N)nc(N)c2n1)c1ccc(Cl)cc1Cl
Response: 500

Prompt: Now this one: Nc1nc(N)c2nc(CNc3ccccc3)ccc2n1
Response: 1700

Prompt: Now this one: CN(Cc1ccc2nc(N)nc(N)c2n1)c1c(Cl)cccc1Cl
Response: 170

Prompt: Now this one: COc1ccc(-c2ccccc2)cc1NNCc1cnc2nc(N)nc(N)c2c1C
Response: 64

Prompt: Now this one: Nc1nc(N)c2nc(CNc3cccc(Cl)c3)ccc2n1
Response: 2000

Prompt: Now this one: COc1ccccc1NCc1ccc2nc(N)nc(N)c2n1
Response: 2700

Prompt: Now this one: COc1ccc(OC)c(N(C)Cc2ccc3nc(N)nc(N)c3n2)c1
Response: 210

Prompt: Now this one: COc1ccccc1N(C)Cc1ccc2nc(N)nc(N)c2n1
Response: 510

Prompt: Now this one: COc1ccc(N(C)Cc2ccc3nc(N)nc(N)c3n2)cc1
Response: 250

Prompt: Now this one: Nc1nc(N)c2nc(CNc3ccc(Cl)cc3Cl)ccc2n1
Response: 730

Prompt: Now this one: COc1ccc(NCc2ccc3nc(N)nc(N)c3n2)cc1OC
Response: 900

Prompt: Now this one: Nc1nc(N)c2nc(CNc3ccc4ccccc4c3)ccc2n1
Response: 1600

Prompt: Now this one: COc1ccc(CNc2cnc3nc(N)nc(N)c3c2)c(OC)c1OC
Response: 14100

Prompt: Now this one: Nc1nc(N)c2nc(CSc3ccccc3)ccc2n1
Response: 2000

Prompt: Now this one: CN(Cc1ccc2nc(N)nc(N)c2n1)c1cccc2ccccc12
Response: 40

Prompt: Now this one: CN(Cc1ccc2nc(N)nc(N)c2n1)c1ccc(Cl)c(Cl)c1
Response: 38

Prompt: Now this one: COc1cc(NCc2ccc3nc(N)nc(N)c3n2)cc(OC)c1OC
Response: 2000

Prompt: Now this one: COc1cccc(NCc2ccc3nc(N)nc(N)c3n2)c1
Response: 1700

Prompt: Now this one: Nc1nc(N)c2nc(CNc3cc(Cl)c(Cl)c(Cl)c3)ccc2n1
Response: 661

Prompt: Now this one: COc1ccccc1NCc1cnc2nc(N)nc(N)c2c1C
Response: 68.9

Prompt: Now this one: Nc1nc(N)c2cc(NCc3cccc4ccccc34)ccc2n1
Response: 720

Prompt: Now this one: Nc1nc(N)c2nc(CNc3c(Cl)cccc3Cl)ccc2n1
Response: 1000

Prompt: Now this one: CN(Cc1cccc2ccccc12)c1ccc2nc(N)nc(N)c2c1
Response: 17

Prompt: Now this one: Nc1nc(N)c2c(n1)CCC(CNc1cccc(Cl)c1)C2 (stereo not given)
Response: 940

Prompt: Now this one: COc1cc(CN(C)c2ccc3nc(N)nc(N)c3c2)cc(OC)c1
Response: 23.3

Prompt: Now this one: COc1cc(CCC2CNc3nc(N)nc(N)c3C2)cc(OC)c1OC (stereo not given)
Response: 7710

Prompt: Now this one: COc1cccc(N(C)Cc2ccc3nc(N)nc(N)c3n2)c1
Response: 97

Prompt: Now this one: Nc1nc(N)c2nc(CNc3ccccc3Cl)ccc2n1
Response: 530

Prompt: Now this one: COc1ccc(N(C)Cc2ccc3nc(N)nc(N)c3n2)cc1OC
Response: 91

Prompt: Now this one: Nc1nc(N)c2nc(CSc3ccc4ccccc4c3)ccc2n1
Response: 380

Prompt: Now this one: Cc1c(CN(C)c2ccccc2)cnc2nc(N)nc(N)c12
Response: 30

Prompt: Now this one: CCN(Cc1cnc2nc(N)nc(N)c2c1C)c1cc(OC)c(OC)c(OC)c1
Response: 497

Prompt: Now this one: Nc1nc(N)c2nc(CSc3cccc4ccccc34)ccc2n1
Response: 470

Prompt: Now this one: CN(Cc1ccc2nc(N)nc(N)c2n1)c1ccc2ccccc2c1
Response: 52

Prompt: Now this one: COc1cc(N(C)Cc2ccc3nc(N)nc(N)c3n2)cc(OC)c1OC
Response: 120

Prompt: Now this one: Nc1nc(N)c2nc(CNc3ccc(Cl)c(Cl)c3)ccc2n1
Response: 410

Prompt: Now this one: Cc1c(C)c(-n2cccc2)c(C)c(C)c1NNCc1cnc2nc(N)nc(N)c2c1C
Response: 620

###

Could you please report measured pIC50 for the items listed next?
target: Dihydrofolate reductase (Pneumocystis carinii); assay: Inhibition of Pneumocystis carinii dihydrofolate reductase
FYI, pIC50 means -log10 of a concentration in mol per litre.

Prompt: Given the entry Nc1nc(N)c2nc(CNc3ccc4ccccc4c3)ccc2n1 , what pIC50 was observed with Dihydrofolate reductase (Pneumocystis carinii)?
Response: 5.80

Prompt: Now this one: Nc1nc(N)c2nc(CNc3cccc(Cl)c3)ccc2n1
Response: 5.70

Prompt: Now this one: Nc1nc(N)c2cc(NCc3cccc4ccccc34)ccc2n1
Response: 6.14

Prompt: Now this one: Nc1nc(N)c2nc(CNc3cc(Cl)c(Cl)c(Cl)c3)ccc2n1
Response: 6.18

Prompt: Now this one: CN(Cc1ccc2nc(N)nc(N)c2n1)c1ccc(Cl)c(Cl)c1
Response: 7.42

Prompt: Now this one: COc1ccc(NCc2ccc3nc(N)nc(N)c3n2)cc1
Response: 6.07

Prompt: Now this one: CN(Cc1ccc2nc(N)nc(N)c2n1)c1ccc2ccccc2c1
Response: 7.28

Prompt: Now this one: COc1cc(CCC2CNc3nc(N)nc(N)c3C2)cc(OC)c1OC (configuration not stated)
Response: 5.11

Prompt: Now this one: Cc1c(CN(C)c2ccccc2)cnc2nc(N)nc(N)c12
Response: 7.52

Prompt: Now this one: CN(Cc1ccc2nc(N)nc(N)c2n1)c1cc(Cl)ccc1Cl
Response: 6.82

Prompt: Now this one: COc1ccc(NCc2ccc3nc(N)nc(N)c3n2)cc1OC
Response: 6.05

Prompt: Now this one: COc1cc(NCc2cnc3nc(N)nc(N)c3c2C)c(O)cc1-n1cccc1
Response: 6.46

###

Could you please report measured log10 IC50 for the items listed next?
Biological target: Dihydrofolate reductase (Pneumocystis carinii)
Sequence (P16184 whole entry): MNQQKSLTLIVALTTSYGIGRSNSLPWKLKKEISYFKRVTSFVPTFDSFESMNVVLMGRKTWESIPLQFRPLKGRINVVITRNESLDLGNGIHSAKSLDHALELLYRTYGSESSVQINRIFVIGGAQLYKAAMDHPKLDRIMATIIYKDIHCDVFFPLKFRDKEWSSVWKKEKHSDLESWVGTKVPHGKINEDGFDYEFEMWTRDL
Assay: Inhibition of Pneumocystis carinii dihydrofolate reductase
# values: log10(IC50), units nM

Prompt: Can you share its log10 IC50? I mean this compound: COc1ccccc1NCc1cnc2nc(N)nc(N)c2c1C
Response: 1.84

Prompt: Now this one: COc1ccc(NCc2ccc3nc(N)nc(N)c3n2)c(OC)c1
Response: 3.74

Prompt: Now this one: Cc1c(CN(C)c2ccc(Cl)cc2)cnc2nc(N)nc(N)c12
Response: 1.90

Prompt: Now this one: Nc1nc(N)c2nc(CNc3ccccc3Cl)ccc2n1
Response: 2.72

Prompt: Now this one: COc1ccc(CNc2cnc3nc(N)nc(N)c3c2)c(OC)c1OC
Response: 4.15

Prompt: Now this one: Nc1nc(N)c2c(n1)CCC(CNc1cccc(Cl)c1)C2 (configuration not stated)
Response: 2.97

Prompt: Now this one: CN(Cc1ccc2nc(N)nc(N)c2n1)c1ccccc1Cl
Response: 2.32

Prompt: Now this one: CN(Cc1ccc2nc(N)nc(N)c2n1)c1cccc2ccccc12
Response: 1.60

Prompt: Now this one: COc1ccc(N(C)Cc2ccc3nc(N)nc(N)c3n2)cc1
Response: 2.40

Prompt: Now this one: COc1cccc(NCc2ccc3nc(N)nc(N)c3n2)c1
Response: 3.23

Prompt: Now this one: Nc1nc(N)c2nc(CSc3cccc4ccccc34)ccc2n1
Response: 2.67

Prompt: Now this one: COc1cccc(N(C)Cc2ccc3nc(N)nc(N)c3n2)c1
Response: 1.99
